Tested on: Chlorella protothecoides
Assay: Effect of hormone concentrations on growth rate, photoheterotrophic conditions, 48 hours
Type: cell-based
Set-up: unit not given here
Settings: hormone 1 ng, control 1.05 ± 0.020
Below: a set of entries, each annotated with reported growth rate.
Please reply with the value in numeric form only.

Worked examples follow.
MOLECULAR STRING	SUBJECT OF TEST	QUANTITY KIND	REPORTED MEASUREMENT
c1coc(CNc2ncnc3[nH]cnc23)c1	Chlorella protothecoides	growth rate	1.02
C=C1C[C@]23C[C@@]1(O)CC[C@H]2[C@@]12C=C[C@H](O)[C@@](C)(C(=O)O1)[C@H]2[C@@H]3C(=O)O	Chlorella protothecoides	growth rate	1.00

[ask] Value lookup for growth rate; key = O=C(O)COc1ccc(Cl)cc1Cl
[reply] 1.01
